Data provenance is patent US10363239B2.

- Tested on: mu opiate receptor (MOR)
- test.details: MOR agonist activity using [35S]GTPγS binding assay in striatal membranes
- Assay type: biochemical
- setup.conditions: Series C-2; 0.1 μM compound, relative to DAMGO
value.type: % DAMGO (0.1 μM) (%)
Output spec: scalar in %, unitless text.

Known % DAMGO (0.1 μM) results, listed for orientation:
compound: COc1ccc(S(=O)(=O)N2CCOC23CCNCC3)cc1
experimental.target: mu opiate receptor (MOR)
measurement.units: %
% DAMGO (0.1 μM): 121.3
//
compound: CC(=O)N1CCSC12CCN(S(=O)(=O)c1ccc([N+](=O)[O-])cc1)CC2
experimental.target: mu opiate receptor (MOR)
measurement.units: %
% DAMGO (0.1 μM): 76.1
//
compound: CC(=O)c1ccc(S(=O)(=O)N2CC(CN(C)C)OC23CCN(CC2CC2)CC3)cc1 (centres unmarked) [Compound C0128M]
experimental.target: mu opiate receptor (MOR)
measurement.units: %
% DAMGO (0.1 μM): 104.5
//
compound: O=C1CN(C2CCc3ccccc3C2)C2(CCN(S(=O)(=O)c3ccccc3)CC2)N1 (centres unmarked) [C0136M(P5)]
experimental.target: mu opiate receptor (MOR)
measurement.units: %
% DAMGO (0.1 μM): 93.4
//
compound: CCOC(=O)CN1CCC2(CC1)OCCN2S(=O)(=O)c1ccc(C(C)=O)cc1 [Compound C0099M]
experimental.target: mu opiate receptor (MOR)
measurement.units: %
% DAMGO (0.1 μM): 93.8
//
compound: COc1ccc(S(=O)(=O)N2CCOC23CCN(C)CC3)cc1 [Compound C0088M]
experimental.target: mu opiate receptor (MOR)
measurement.units: %
% DAMGO (0.1 μM): 160.5
//
compound: O=S(=O)(c1cccc2cccnc12)N1CCC2(CC1)OCCN2S(=O)(=O)c1cccc2cccnc12 [Compound C0143M]
experimental.target: mu opiate receptor (MOR)
measurement.units: %
% DAMGO (0.1 μM): 47.1

For the next question, use this compound.
Request: Can you look up % DAMGO (0.1 μM) on mu opiate receptor (MOR) for COc1ccc(S(=O)(=O)N2CCC3(NCCO3)C3CCCCC32)cc1 (centres unmarked) [Compound C0144M-2] ?
Result: 108.3
